Molecular target: HA of virus A/Hiroshima/52/2005 (H3N2) (influenza A virus (H3N2))
Assay: cell-based or functional assay
Rule: measured Neutralization titer SK50 below 9 µg/mL gets MET; anything equal to or greater than 9 µg/mL gets NOT MET.

Known results for binders:
binder	assigned.category
CR8039 (antibody, V domains shown) VH: QLQLQESGPGLVKPSETLSLTCTVSGGSIGSYYWSWIRQPPGKGLEWIGYIYYRGGTSYNPSLKSRVTISVDTSKSQFTLKLNSVTAADTAVYYCARKDWGSAAGSVWYFDL VL: QSALTQPPSASGSPGQSVTISCTGTSSDVGGYNYVSWYQQHPGKAPKLMIREVSKRPSGVPDRFSGSKSGNTASLTVSGLQAEDEAEYYCSSYAGSNNLI	MET
CR8015 (antibody, V domains shown) VH: QVQLQESGGDLVQPGGSLRLSCSASEFSFSSYWMSWVRQAPGKGLEWVANMKQDGSEKYYVDSVKGRFTISRDNAKNSLYLQMNSLRGEDTAVYYCARGSCDDSWTGCHDAFDI VL: VLTQPPSVSVAPGQTAKITCGGDNIGRKSVHWYQQKPGLAPVLVVNDNSDRPSGIPARFSGSNSGNTATLTISRVEAGDEADYYCHVWGSSRDHYV	NOT MET
CR8052 (antibody, V domains shown) VH: DIQLTQSPSSLSASVGDRVTITCRASQGINTYLNWYQQKPGKAPKVLIFAASTLQSGVPSRFSGSGSGTEFTLNINNLQPEDFATYYCQQSYSTAIT VL: EVQLVESGGGVVQPGRSLRLSCAASGFSFTTYGMHWVRQAPGKGLEWVAFIWYDGSNKHYQDSVKGRFTISKDNSNNMLYLQMDSLRVADTAVYYCVRDGGYSTWEWYFDL	NOT MET

Strictly below 9 µg/mL: is that where Neutralization titer SK50 of CR8001 (antibody, V domains shown) VH: EVQLVESGGGLIQPGGSLRLSCAASGFTVSSNYVSWVRQAPGKGLEWLSLIYTGGTTYYADSVKGRFTISRDNSKNTVFLQMNSLRAEDAAMYYCARVSALRFLQWPNYAMDV VL: QSALTQPASVSGSPGRSITISCSGTRSDVGGHNYVSWYQQHPGKAPKLMIYEVSHRPSGVSNRFSGSKSGSTASLTISGLQSEDEADYYCSSYTGEGPLGV sits?
NOT MET

Strictly below 9 µg/mL: is that where Neutralization titer SK50 of CR8003 (antibody, V domains shown) VH: EVQLVETGGDLVQPGGSLRLSCSASEFSFSSYWMSWVRQAPGKGLEWVANMKQDGSEKYYVDSVKGRFTISRDNAKNSLYLQMNSLRGEDTAVYYCARGSCDDSWTGCHDAFDI VL: VLTQPPSVSVAPGQTARIACGGNNIGSKSVHWYQQKPGQAPVLVVYDDSARPSGIPERFSGSNSGNTATLTISRVEAGDEADYYCQVWESGSDLRLL sits?
MET
